Tested on: P. falciparum (highly chloroquine-resistant strain Fcm29-Cameroon)
Test: Antimalarial activity test (radioactive micromethod of Desjardins)
Type: cell-based
Conditions: Plasmodium falciparum, Erythrocyte, 1 μM, infected human erythrocytes, 48 h, tritiated hypoxanthine incorporation
Recorded inhibition at 1 µM for the following molecules
The response must be a number in % with no trailing unit.

# count of solved cases: 3
INSERT INTO measurements (compound_structure_string, observation_type, experimental_result) VALUES
  ('O=c1cc(N2CCOCC2)nc2n1CC[C@@H](C(F)(F)F)N2c1ccc(F)cc1', 'inhibition at 1 µM', 52),
  ('CN(C)CC(=O)Nc1cccc([C@H](O)CN2c3nc(N4CCOCC4)cc(=O)n3CC[C@H]2C(F)(F)F)c1', 'inhibition at 1 µM', 99),
  ('O=c1cc(N2CCOCC2)nc2n1CC[C@@H](C(F)(F)F)N2C[C@@H](O)c1cc2ccccc2s1', 'inhibition at 1 µM', 96);

Need inhibition at 1 µM of COc1ccc([C@H](O)CN2c3nc(N4CCOCC4)cc(=O)n3CC[C@H]2C(F)(F)F)c(Cl)c1 , thanks.
99

So what's the measured inhibition at 1 µM for this one? COc1cc(F)ccc1[C@H](O)CN1c2nc(N3CCOCC3)cc(=O)n2CC[C@H]1C(F)(F)F
99

Tell me the measured inhibition at 1 µM of COc1cc(Cl)ccc1[C@H](O)CN1c2nc(N3CCOCC3)cc(=O)n2CC[C@H]1C(F)(F)F , please.
99

Which inhibition at 1 µM is listed for COc1ccc(CCN2c3nc(N4CCOCC4)cc(=O)n3CC[C@H]2C(F)(F)F)cc1 ?
99

Could you tell me which inhibition at 1 µM is on file for COc1ccccc1CCN1c2nc(N3CCOCC3)cc(=O)n2CC[C@H]1C(F)(F)F ?
100

###

System: P. falciparum (highly chloroquine-resistant strain Fcm29-Cameroon)
Experiment: Antimalarial activity test (radioactive micromethod of Desjardins)
Format: cell-based
Conditions: Plasmodium falciparum, Erythrocyte, 1 μM, infected human erythrocytes, 48 h, tritiated hypoxanthine incorporation
inhibition at 1 µM values by entry
Write the answer as a number in %, unit excluded.

# inhibition at 1 µM lookup, item O=c1cc(N2CCOCC2)nc2n1CC[C@@H](C(F)(F)F)N2CC(O)Cc1ccccc1 (stereo partly shown)
93

Fill in the blank: the reported inhibition at 1 µM of O=c1cc(N2CCOCC2)nc2n1CC[C@@H](C(F)(F)F)N2C[C@@H](O)c1cccc(O)c1 is ____.
99

State the recorded inhibition at 1 µM for this entry: COc1ccc(N2c3nc(N4CCOCC4)cc(=O)n3CC[C@H]2C(F)(F)F)cc1
36

Given O=c1cc(N2CCOCC2)nc2n1CC[C@@H](C(F)(F)F)N2Cc1ccccc1 , state its recorded inhibition at 1 µM.
97

###

System: translocation of the LC3 protein in Hela GFP-LC3 cells
Assay: Study of the translocation of the LC3 protein in Hela human cells, measured by image analysis cytometry (Test C, autophagy)
Type: cell-based
Details: Hela GFP-LC3 cells with LC3 granulations, EBSS + 10 μM hydroxychloroquine, 2 h; absolute IC50
OBSERVATION_TYPE: IC50
Give the figure together with its unit, number first.

INSERT INTO results (compound, observation_type, experimental_result) VALUES
  ('CC(c1ccc(F)cc1)N1c2nc(N3CCOCC3)cc(=O)n2CC[C@H]1C(F)(F)F (single isomer, unassigned) [Example 34]', 'IC50', '35 nM');

Need IC50 of CC(c1ccccc1F)N1c2nc(N3CCOCC3)cc(=O)n2CC[C@H]1C(F)(F)F (single isomer, unassigned) [Example 39] , thanks.
237 nM

Reference for the values: patent US8846670B2
